system: CAKI-1; assay: NCI tumour cell line growth inhibition, 48 h
The source made the active and inactive calls. Cut-off read from the data, not from the text of the source: active = GI50 up to about 1.1 µM and inactive = higher.
Known GI50 of a selection of compounds
measurement.label: GI50

INSERT INTO measurements (compound, result_value) VALUES
  ('CCOC(=O)c1csc(-c2cn(C)c3c2C(=O)C(OC)=CC3=O)n1', '> 91.2 µM (inactive)'),
  ('CCOc1cc2c(C(=O)CC)c(O)ccc2o1', '> 100 µM (inactive)'),
  ('CC1(C)OC(=O)C(Cc2ccccc2)(Cc2ccccc2)C(=O)O1', '> 100 µM (inactive)'),
  ('COP(=O)(OC)C(O)/C=C/c1ccco1 (stereo unspecified)', '> 100 µM (inactive)'),
  ('COC1=CC(=O)C(O)=C(C[C@@]2(C)[C@@H]3CCC[C@H](COC(=O)CCCCCNC(=O)OC(C)(C)C)[C@@]3(C)CC[C@@H]2C)C1=O', '4.61 µM (inactive)'),
  ('OCC1OC(c2scc3c(=S)[nH]cnc23)C(O)C1O (stereo unspecified)', '6.59 µM (inactive)'),
  ('O=C1CSC(C(/N=N/c2ccccc2)=C2Nc3ccccc3N2)=N1', '24.9 µM (inactive)'),
  ('O=c1c(Cc2ccccc2)c(O)cc2n1CCC2', '> 100 µM (inactive)'),
  ('Cc1cccc2c(N)c3cccc(C(=O)NCC[N+](C)(C)Cc4sc(N5CCOCC5)nc4[N+](=O)[O-])c3nc12', '0.344 µM (active)'),
  ('O=c1[nH]cc(COCCO)c(=O)[nH]1', '> 100 µM (inactive)'),
  ('Cc1ccsc1/C(S)=N\c1ccc(Cl)c(/C=N/OC(C)(C)C)c1', '29 µM (inactive)');

* * *

test system: RXF 393; assay: NCI tumour cell line growth inhibition, 48 h
Activity calls are given as the source filed them. Rule as the data show it: active = GI50 up to about 1.1 µM and inactive = higher.
Outcome codes: yes (1) = active, no (0) = inactive

INSERT INTO results (compound, assigned_label) VALUES
  ('C[C@H](CN1CC(=O)NC(=O)C1)N1CC(=O)NC(=O)C1', 'no (0)'),
  ('COc1cc(/C=C/C(=O)O)ccc1C(=O)O/C=C/c1ccccc1', 'no (0)'),
  ('CCN1/C(=C/C#C/C(C)=C\c2sc3ccccc3[n+]2CC)Sc2ccccc21', 'no (0)'),
  ('COc1cccc(C(=O)O[C@H]2[C@@H]3[C@]4(OC(C)=O)CO[C@@H]4C[C@H](O)[C@@]3(C)C(=O)[C@H](OC(C)=O)C3=C(C)[C@@H](OC(=O)[C@H](O)[C@@H](NC(=O)OC(C)(C)C)c4ccco4)C[C@]2(O)C3(C)C)c1', 'yes (1)'),
  ('Cc1cc(C)nc(NS(=O)(=O)c2ccc(Nc3c4ccc(Cl)cc4nc4c(C(=O)Nc5ccc(S(N)(=O)=O)cc5)cccc34)cc2)n1', 'no (0)'),
  ('COC(=O)[C@@H]1C(=O)O[C@@H](c2ccc3c(c2)OCO3)[C@@H]1C(=O)OC.COC(=O)[C@H]1C(=O)O[C@@H](c2ccc3c(c2)OCO3)[C@@H]1C(=O)OC', 'no (0)'),
  ('CC[P+]1(c2ccccc2)CCCCC1', 'no (0)'),
  ('COCCCCCC(=O)CP(=O)(OC)OC', 'no (0)'),
  ('Cc1cccc2c(N)c3cccc(C(=O)NCC[N+](C)(C)Cc4sc(N5CCOCC5)nc4[N+](=O)[O-])c3nc12', 'no (0)'),
  ('CCOC(=O)C1=C(Nc2cccc3ccccc23)OC/C1=N\NC(=O)c1ccccc1O', 'no (0)'),
  ('CC(C)=CCC/C(C)=C/CC/C(C)=C/CC/C=C(\C)CC/C=C(\C)CCC1SC1(C)C (stereo not drawn)', 'no (0)'),
  ('FC(F)(F)C1=NC(=NNc2nnc(-c3ccccc3)c(-c3ccccc3)n2)N=C(C(F)(F)F)C1', 'no (0)'),
  ('Cc1ccccc1C1=C(C(=O)Nc2ccc(Cl)c(Cl)c2)NC(=S)NC1N (stereo not drawn)', 'no (0)');
